test system: MDA-MB-231; assay: normalised viability (% of control), CellTiter-Blue; higher = more viable cells (100 = DMSO, 0 = benzethonium chloride kill control); details: incubation time: 72 h
Consider the following molecules and their measured normalised viability readings.
Output spec: scalar in %, unitless text.

Check out these entries, answers already filled in.
# molecule, target or system, unit symbol, normalised viability
records = [
    ("CC(C)C[C@H](NC(=O)[C@H](Cc1ccccc1)NC(=O)c1cnccn1)B(O)O [Bortezomib] (0.1 nM)", "MDA-MB-231", "%", 91.9),
    ("c1ccc(C2CN3CCSC3=N2)cc1 (configuration not stated) [Tetramisole] (1 nM)", "MDA-MB-231", "%", 99.2),
    ("COc1ncc(-c2ccc3nccc(-c4ccnnc4)c3c2)cc1NS(=O)(=O)c1ccc(F)cc1F (0.1 nM)", "MDA-MB-231", "%", 92),
]

Name the value of normalised viability reported for CN1CCN(c2ccc3nc(-c4c(N)c5c(F)cccc5[nH]c4=O)[nH]c3c2)CC1 [Dovitinib] (1 nM) when tested on MDA-MB-231.
84.5

Name the value of normalised viability reported for C[C@@]1(C(=O)Nc2ccc(F)nc2)CCCN1c1nc(Nc2cc(C3CC3)n[nH]2)c2cccn2n1 (1 nM) when tested on MDA-MB-231.
115

Name the value of normalised viability reported for COc1cccc2c1C(=O)c1c(O)c3c(c(O)c1C2=O)C[C@@](O)(C(C)=O)C[C@@H]3O[C@H]1C[C@H](N)[C@H](O)[C@H](C)O1 [Daunorubicin] (0.1 nM) when tested on MDA-MB-231.
103

Name the value of normalised viability reported for CC(C)(C)c1cc(NC(=O)Nc2ccc(-c3cn4c(n3)sc3cc(OCCN5CCOCC5)ccc34)cc2)no1 [Quizartinib] (0.1 nM) when tested on MDA-MB-231.
105

----------
system: DU-4475; assay: drug sensitivity score (DSS), CellTox Green (DSS (AUC-based score)); higher = stronger drug effect (viability inhibition or cytotoxicity); extreme values may be limits of the assay; conditions: incubation time: 72 h
Consider the following compounds and their measured drug sensitivity score readings.
# print the numeric value only

Return value of drug sensitivity score for input CS(=O)(=O)OCCCCOS(C)(=O)=O , no commentary.
0

----------
system: HCC1599; assay: normalised viability (% of control), CellTiter-Blue; higher = more viable cells (about 100 = DMSO control); conditions: 10000 nM; incubation time: 72 h
We label by threshold. Values of normalised viability strictly beneath 80% are Criterion met. Values of 80% and up are Criterion not met.

Given the entry O=C(c1ccc(OCCN2CCCCC2)cc1)c1c(-c2ccc(O)cc2)sc2cc(O)ccc12 , would its reported normalised viability be below 80%?
Criterion not met

Given the entry C#Cc1cccc(Nc2ncnc3cc(OC)c(OCCCCCCC(=O)NO)cc23)c1 , would its reported normalised viability be below 80%?
Criterion met

Given the entry COC1=CC(c2cc3ccccc3[nH]2)=N/C1=C\c1[nH]c(C)cc1C , would its reported normalised viability be below 80%?
Criterion met

Given the entry COC(=O)C[C@](O)(CCCC(C)(C)O)C(=O)O[C@@H]1C(OC)=C[C@]23CCCN2CCc2cc4c(cc2[C@H]13)OCO4 [Omacetaxine mepesuccinate] , would its reported normalised viability be below 80%?
Criterion met

Given the entry CN1CCN(c2ccc3nc(-c4c(N)c5c(F)cccc5[nH]c4=O)[nH]c3c2)CC1 , would its reported normalised viability be below 80%?
Criterion not met

Where do these numbers come from? They come from the supplement of paper PMC4862054.
